Data origin, for the record: ChEMBL document CHEMBL6114980

assay: Acute toxicity in male BALB/c mouse assessed lethal dose administered as ip dose measured for 7 days; assay type: organism-based; conditions: in vivo, time 7 day
Peptide text beside a SMILES is read from it. * marks the point of attachment. Lauroyl = CCCCCCCCCCCC(=O)*; Octanoyl = CCCCCCCC(=O)*
Measured LD50 at 168 h, listed per entry for reference.

Compound | LD50 at 168 h, mg/kg
CCCCCCCC(=O)NCCCC[C@H](NC(=O)CCCCCCC)C(=O)N[C@@H](CCCCN)C(=O)N[C@@H](CCCCN)C(=O)N[C@@H](Cc1c[nH]c2ccccc12)C(=O)N[C@@H](Cc1c[nH]c2ccccc12)C(N)=O (Octanoyl-K(Octanoyl)KKWW-NH2) | 113
CCCCCCCCCCCC(=O)N[C@@H](CCCCN)C(=O)N[C@@H](CCCCN)C(=O)N[C@@H](Cc1c[nH]c2ccccc12)C(=O)N[C@@H](Cc1c[nH]c2ccccc12)C(N)=O (Lauroyl-KKWW-NH2) | 114
